Tested on: OVCAR-3
Assay: NCI tumour cell line growth inhibition, 48 h
Activity calls are given as the source filed them. No stated cut-off is given here; in the data, active = GI50 up to about 1.1 µM and inactive = higher.
Outcome codes: active, inactive

molecule | group
C=C(C)COC(=O)COCC(=O)OCC(=C)C | inactive
NC(=O)CSc1c2cc(O)ccc2nc2ccc(O)cc12 | inactive
CN(CN1C(=O)C2Cc3ccccc3CN2C1=O)c1ccccn1 (stereo unspecified) | inactive
C/C(=N\NC(N)=S)c1cc(C)c(C)cc1C | inactive
C=C1CC(CC(=O)C(C)CC2CC(=C)C(=O)O2)OC1=O (stereo unspecified) | inactive
COC(=O)C(CCSC)NC(=O)Cc1ccc(C(=O)c2ccccc2)cc1 (stereo unspecified) | inactive
CC(=O)C1C(=O)C(=O)N(c2ccc([N+](=O)[O-])cc2[N+](=O)[O-])C1=O (stereo unspecified) | inactive
O=C(CC(=O)Nc1ccccc1)NNC(c1cc(/N=N/c2ccc(Br)cc2)ccc1O)P(O)O (stereo unspecified) | active
COc1cc(NC(C)=O)ccc1C(=O)N/N=C/c1ccc(Cl)cc1Cl | inactive
CCOC(=O)/C(C(C)=O)=C1/N[C@H](C(=O)OCC)CS1 | inactive
CC1(C)C(=O)N(O)C(C)(C)N1O | inactive

The reported measurements were obtained from ChEMBL document CHEMBL1201862.
